experiment: Cytotoxicity, ATPLite luminescence-based assay, MDCK cells; assay type: cell-based, canine; settings: dog
# reported CC50; entries follow
// note: answer is a bare numeric in µM

What the record says about Cc1ncc(-c2c[nH]c3ccccc23)o1 [Pimprinine, 5, 30-indolyl-2-methyloxazole] : CC50 is 649

Lab note: next compound to report on.
What the record says about CCc1ncc(-c2c[nH]c3ccccc23)o1 [Pimprinethine] : CC50 is 406

====

test: Cytotoxicity, ATPLite luminescence-based assay, RD cells; assay type: cell-based; settings: human
# reported CC50; entries follow
// note: answer is a bare numeric in µM

The examples below pair each entry with its known result.
What the record says about CCCCc1ncc(-c2c[nH]c3ccccc23)o1 : CC50 is 267

What the record says about Cc1ncc(-c2c[nH]c3ccccc23)o1 : CC50 is 1260

What the record says about CCc1ncc(-c2c[nH]c3ccccc23)o1 : CC50 is 656

---
What the record says about CCCc1ncc(-c2c[nH]c3ccccc23)o1 : CC50 is 313

====

experiment: Cytotoxicity, MTT method, HeLa cells; format: cell-based; conditions: human
property.measured: CC50 at 48 h (µM)
// note: answer is a bare numeric in µM

What the record says about NC(=O)c1ncn([C@@H]2O[C@H](CO)[C@@H](O)[C@H]2O)n1 [Ribavirin, reference compound] : CC50 at 48 h is 1520

====

assay: Cytotoxicity, MTT method, Hep-2 cells; type: cell-based; details: human, uninfected Hep-2 cells; host cells of CVB3: Hep-2, MTT, 48 h; read-out: CC50 (CVB3)
property.measured: CC50 at 48 h (µM)
// note: answer is a bare numeric in µM

What the record says about CCc1ncc(-c2c[nH]c3ccccc23)o1 : CC50 at 48 h is 256

---
What the record says about Cc1ncc(-c2c[nH]c3ccccc23)o1 : CC50 at 48 h is 443

What the record says about CCCCc1ncc(-c2c[nH]c3ccccc23)o1 : CC50 at 48 h is 83

What the record says about CCCc1ncc(-c2c[nH]c3ccccc23)o1 : CC50 at 48 h is 72

====

# reported SI HSV-1, ratio CC50/EC50; entries follow
tested on: HSV-1; assay: Plaque reduction assay, HSV-1 in Hep-2 cells; conditions: Hep-2 cells
# answer = number (no unit)

What the record says about Cc1ncc(-c2c[nH]c3ccccc23)o1 [Pimprinine, 5, 30-indolyl-2-methyloxazole] : SI HSV-1, ratio CC50/EC50 is 3

What the record says about CCCCc1ncc(-c2c[nH]c3ccccc23)o1 [WS-30581 B] : SI HSV-1, ratio CC50/EC50 is 6

What the record says about CCc1ncc(-c2c[nH]c3ccccc23)o1 [Pimprinethine] : SI HSV-1, ratio CC50/EC50 is 6

Lab note: next molecule to report on.
What the record says about CCCc1ncc(-c2c[nH]c3ccccc23)o1 [WS-30581 A] : SI HSV-1, ratio CC50/EC50 is 4

====

tested on: CVB3; experiment: Inhibition of CVB3-induced CPE in Hep-2 cells; settings: Hep-2 cells
# reported SI CVB3, ratio CC50/EC50; entries follow
# answer = number (no unit)

The examples below pair each entry with its known result.
What the record says about CCc1ncc(-c2c[nH]c3ccccc23)o1 : SI CVB3, ratio CC50/EC50 is 12

What the record says about NC(=O)c1ncn([C@@H]2O[C@H](CO)[C@@H](O)[C@H]2O)n1 [Ribavirin, reference compound] : SI CVB3, ratio CC50/EC50 is 15

What the record says about CCCc1ncc(-c2c[nH]c3ccccc23)o1 : SI CVB3, ratio CC50/EC50 is 5

What the record says about Cc1ncc(-c2c[nH]c3ccccc23)o1 : SI CVB3, ratio CC50/EC50 is 5

Lab note: next molecule to report on.
What the record says about CCCCc1ncc(-c2c[nH]c3ccccc23)o1 : SI CVB3, ratio CC50/EC50 is 7

====

system: H1N1; experiment: Inhibition of H1N1-induced CPE in MDCK cells; assay type: cell-based, influenza virus A/human/Hubei/86/2009 (H1N1); conditions: MDCK cells
property.measured: inhibition of H1N1 infection

What the record says about CCCCc1ncc(-c2c[nH]c3ccccc23)o1 : inhibition of H1N1 infection is less than 70%

What the record says about CCCc1ncc(-c2c[nH]c3ccccc23)o1 : inhibition of H1N1 infection is less than 70%

====

assay: Cytotoxicity, MTT method, Hep-2 cells; type: cell-based; conditions: human
property.measured: CC50 at 48 h (µM)
// note: answer is a bare numeric in µM

What the record says about NC(=O)c1ncn([C@@H]2O[C@H](CO)[C@@H](O)[C@H]2O)n1 [Ribavirin, reference compound] : CC50 at 48 h is 1310

====

# reported CC50; entries follow
experiment: Cytotoxicity, ATPLite luminescence-based assay, HeLa cells; assay type: cell-based; conditions: human
// note: answer is a bare numeric in µM

What the record says about Cc1ncc(-c2c[nH]c3ccccc23)o1 : CC50 is 940

Lab note: next molecule to report on.
What the record says about CCc1ncc(-c2c[nH]c3ccccc23)o1 : CC50 is 550

====

assay: Cytotoxicity, MTT method, HeLa cells; assay type: cell-based; details: human, uninfected HeLa cells; host cells of ADV-7: HeLa, MTT, 48 h; read-out: CC50 (ADV-7)
property.measured: CC50 at 48 h (µM)
// note: answer is a bare numeric in µM

What the record says about CCCCc1ncc(-c2c[nH]c3ccccc23)o1 : CC50 at 48 h is 354

What the record says about CCc1ncc(-c2c[nH]c3ccccc23)o1 : CC50 at 48 h is 750

What the record says about Cc1ncc(-c2c[nH]c3ccccc23)o1 : CC50 at 48 h is 1140

Lab note: next molecule to report on.
What the record says about CCCc1ncc(-c2c[nH]c3ccccc23)o1 : CC50 at 48 h is 217

====

assay: Cytotoxicity, MTT method, uninfected RD cells; assay type: cell-based; settings: human; RD cells, MTT, 48 h; mean ± SD of three experiments; read-out: CC50, compound concentration required to reduce cell viability by 50%
# reported CC50 at 48 h; entries follow
// note: answer is a bare numeric in µM

The examples below pair each entry with its known result.
What the record says about CCc1ncc(-c2c[nH]c3ccccc23)o1 : CC50 at 48 h is 835

What the record says about CCCCc1ncc(-c2c[nH]c3ccccc23)o1 : CC50 at 48 h is 229

What the record says about CCCc1ncc(-c2c[nH]c3ccccc23)o1 : CC50 at 48 h is 363

Lab note: next molecule to report on.
What the record says about Cc1ncc(-c2c[nH]c3ccccc23)o1 : CC50 at 48 h is 1460

====

# reported EC50; entries follow
test system: CVB3; assay: Inhibition of CVB3-induced CPE in Hep-2 cells; conditions: Enterovirus B, CVB3, HEp-2, 48 h, read-out: EC50 CVB3
// note: answer is a bare numeric in µM

What the record says about CCc1ncc(-c2c[nH]c3ccccc23)o1 : EC50 is 22

Lab note: next compound to report on.
What the record says about NC(=O)c1ncn([C@@H]2O[C@H](CO)[C@@H](O)[C@H]2O)n1 [Ribavirin, reference compound] : EC50 is 90

====

# reported SI ADV-7, ratio CC50/EC50; entries follow
system: ADV-7; test: Inhibition of ADV-7-induced CPE in HeLa cells; details: HeLa cells
# answer = number (no unit)

The examples below pair each entry with its known result.
What the record says about CCc1ncc(-c2c[nH]c3ccccc23)o1 : SI ADV-7, ratio CC50/EC50 is 23

What the record says about Cc1ncc(-c2c[nH]c3ccccc23)o1 : SI ADV-7, ratio CC50/EC50 is 8

What the record says about NC(=O)c1ncn([C@@H]2O[C@H](CO)[C@@H](O)[C@H]2O)n1 [Ribavirin, reference compound] : SI ADV-7, ratio CC50/EC50 is 13

What the record says about CCCc1ncc(-c2c[nH]c3ccccc23)o1 : SI ADV-7, ratio CC50/EC50 is 13

Lab note: next molecule to report on.
What the record says about CCCCc1ncc(-c2c[nH]c3ccccc23)o1 : SI ADV-7, ratio CC50/EC50 is 24

====

system: HSV-1; assay: Plaque reduction assay, HSV-1 in Hep-2 cells; conditions: Human alphaherpesvirus 1, HEp-2, read-out: EC50 HSV-1
# reported EC50; entries follow
// note: answer is a bare numeric in µM

What the record says about CCCCc1ncc(-c2c[nH]c3ccccc23)o1 [WS-30581 B] : EC50 is 14

What the record says about Cc1ncc(-c2c[nH]c3ccccc23)o1 [Pimprinine, 5, 30-indolyl-2-methyloxazole] : EC50 is 160

---
What the record says about CCc1ncc(-c2c[nH]c3ccccc23)o1 [Pimprinethine] : EC50 is 45

What the record says about Nc1nc2c(ncn2COCCO)c(=O)[nH]1 [Acyclovir, reference compound] : EC50 is 11

What the record says about CCCc1ncc(-c2c[nH]c3ccccc23)o1 [WS-30581 A] : EC50 is 18
